# maps each entry to its IC50
- MEASUREMENT_TARGET: full-length beta-Catenin (Uniprot ID P35222) (Homo sapiens, UniProt P35222)
- Construct: 10 nM full-length beta-Catenin (Uniprot ID P35222)
- PROTOCOL: Fluorescence polarization IC50 (beta-catenin / 5FAM-TCF4 10-53 competition)
- Assay type: binding
- SETTINGS: fluorescence polarization; read-out: beta-Catenin FP IC50
Reply with just the number (in nM).

// returns reported IC50 for input CC[C@@H]1NC(=O)[C@H](CC(=O)O)NC(=O)[C@]2(CC=CCCCC3(CCCC=CCCCCCC[C@@](C)(C(=O)N[C@@H](Cc4ccccc4)C(=O)N[C@@H](Cc4csc5ccccc45)C(=O)N[C@@H](CCC(N)=O)C(N)=O)NC(=O)[C@H](CC(N)=O)NC(=O)[C@H](Cc4ccccc4)NC(=O)[C@H](C)NC(=O)[C@H](C)NC(=O)[C@H](CC(=O)O)NC(=O)[C@H](CC(=O)O)NC3=O)NC1=O)CCCN2C(C)=O (some centres unmarked) [I-573]
36

Please look up its IC50: CC(=O)N1CCC[C@]12CC=CCCCC1(CCCC=CCCCOC(=O)N3CC[C@@](C(=O)N[C@@H](Cc4ccsc4)C(=O)N[C@@H](Cc4csc5ccccc45)C(=O)N[C@@H](CCC(N)=O)C(N)=O)(C3)NC(=O)[C@H](CC(N)=O)NC(=O)[C@H](Cc3ccc(O)cc3)NC(=O)[C@H](C)NC(=O)[C@H](C)NC(=O)[C@H]([C@@H](C)O)NC(=O)[C@H](CC(N)=O)NC1=O)NC(=O)[C@H](CC(C)(C)C)NC(=O)[C@H](CC(=O)O)NC2=O (some centres unmarked) [I-2015]
522

====

- MEASUREMENT_TARGET: beta-catenin/TCF4 engagement (Homo sapiens)
- Construct: expressed in transfected cells; host or cells: HEK293
- Sequence (P35222 1-781): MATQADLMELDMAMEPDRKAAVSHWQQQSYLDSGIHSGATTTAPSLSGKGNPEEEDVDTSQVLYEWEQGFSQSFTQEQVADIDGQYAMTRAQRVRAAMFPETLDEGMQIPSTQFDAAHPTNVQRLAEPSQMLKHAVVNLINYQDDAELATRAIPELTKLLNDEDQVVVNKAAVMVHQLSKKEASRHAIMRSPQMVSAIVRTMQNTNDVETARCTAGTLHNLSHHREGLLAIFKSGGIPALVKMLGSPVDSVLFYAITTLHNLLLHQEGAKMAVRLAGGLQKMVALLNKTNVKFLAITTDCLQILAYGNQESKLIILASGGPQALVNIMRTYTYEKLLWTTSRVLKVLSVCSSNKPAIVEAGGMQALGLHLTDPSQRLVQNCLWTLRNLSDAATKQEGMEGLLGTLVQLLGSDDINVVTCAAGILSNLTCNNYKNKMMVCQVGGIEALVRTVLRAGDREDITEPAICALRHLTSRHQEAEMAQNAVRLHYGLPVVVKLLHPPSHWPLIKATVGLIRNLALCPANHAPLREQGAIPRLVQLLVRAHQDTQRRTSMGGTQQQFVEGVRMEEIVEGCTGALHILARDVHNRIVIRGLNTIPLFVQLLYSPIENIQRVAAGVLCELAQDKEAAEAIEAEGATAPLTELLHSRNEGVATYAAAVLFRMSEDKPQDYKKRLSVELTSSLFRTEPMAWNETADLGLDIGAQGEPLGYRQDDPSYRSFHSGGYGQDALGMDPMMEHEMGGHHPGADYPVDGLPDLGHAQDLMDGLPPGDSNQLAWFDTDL
- PROTOCOL: Nano-BRET target engagement assay (B-cat-Halo & TCF4-Luc in HEK293 cells)
- Format: cell-based
- SETTINGS: absolute IC50; read-out: NanoBRET Abs IC50
MEASURED_PARAMETER: pIC50
Bear in mind: pIC50 is minus log10 of a mol/L concentration; give just that figure.

Recorded pIC50 of CC(=O)N1CCC[C@]12CC=CCCCC1(CCCC=CCCCOC(=O)N3CC[C@@](C(=O)N[C@@H](Cc4ccsc4)C(=O)N[C@@H](Cc4csc5ccccc45)C(=O)N[C@@H](CC(N)=O)C(=O)N[C@@H](C)C(=O)N[C@@H](CC(C)C)C(=O)N[C@@H](C)C(=O)N[C@@H](CC(C)C)C(=O)N[C@@H](C)C(N)=O)(C3)NC(=O)[C@H](CC(C)C)NC(=O)[C@H](Cc3ccccc3)NC(=O)[C@H](C)NC(=O)[C@H](C)NC(=O)[C@H](Cc3cccc(C(=O)O)c3)NC(=O)[C@H](CC(=O)O)NC1=O)NC(=O)[C@H](CC(C)(C)C)NC(=O)[C@H](CC(=O)O)NC2=O (stereo partly shown) [I-2281] , please.
5.37

====

- MEASUREMENT_TARGET: full-length beta-Catenin (Uniprot ID P35222) (Homo sapiens, UniProt P35222)
- Construct: 10 nM full-length beta-Catenin (Uniprot ID P35222)
- Sequence (P35222 1-781): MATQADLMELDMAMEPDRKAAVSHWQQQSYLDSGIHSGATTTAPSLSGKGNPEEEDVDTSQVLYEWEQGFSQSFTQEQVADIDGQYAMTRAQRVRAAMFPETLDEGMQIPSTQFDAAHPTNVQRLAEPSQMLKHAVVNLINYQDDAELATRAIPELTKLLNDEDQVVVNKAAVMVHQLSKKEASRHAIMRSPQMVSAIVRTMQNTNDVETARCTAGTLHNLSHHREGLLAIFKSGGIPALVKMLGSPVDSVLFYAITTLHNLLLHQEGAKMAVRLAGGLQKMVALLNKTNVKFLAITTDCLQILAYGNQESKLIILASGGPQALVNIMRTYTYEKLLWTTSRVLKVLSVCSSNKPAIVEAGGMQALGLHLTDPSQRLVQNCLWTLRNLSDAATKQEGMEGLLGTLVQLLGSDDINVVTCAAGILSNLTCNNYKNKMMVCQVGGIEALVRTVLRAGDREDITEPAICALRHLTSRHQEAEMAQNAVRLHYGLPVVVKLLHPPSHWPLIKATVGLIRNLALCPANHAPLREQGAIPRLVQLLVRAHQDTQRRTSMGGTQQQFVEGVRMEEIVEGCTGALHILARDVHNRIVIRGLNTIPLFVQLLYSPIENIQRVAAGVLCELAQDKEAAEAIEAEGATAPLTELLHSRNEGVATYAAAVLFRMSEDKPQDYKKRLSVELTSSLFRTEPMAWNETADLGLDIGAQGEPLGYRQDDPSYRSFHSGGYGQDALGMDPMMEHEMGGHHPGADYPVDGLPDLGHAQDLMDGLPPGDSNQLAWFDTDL
- PROTOCOL: Fluorescence polarization IC50 (beta-catenin / 5FAM-TCF4 10-53 competition)
- Format: binding
- SETTINGS: fluorescence polarization; read-out: beta-Catenin FP IC50
Entries annotated with measured pIC50
// pIC50: -log10(molar conc.)

[
  {
    "MOLECULE": "CC(=O)N1CCC[C@]12CC=CCCCC1(CCCC=CCCCOC(=O)N3CC[C@@](C(=O)N[C@@H](Cc4ccccc4C(F)(F)F)C(=O)N[C@@H](Cc4csc5ccccc45)C(=O)N[C@@H](C)C(N)=O)(C3)NC(=O)[C@H](CC(C)C)NC(=O)[C@H](Cc3ccccc3)NC(=O)[C@@H](C)NC(=O)[C@H](C)NC(=O)[C@H](Cc3cccc(C(=O)O)c3)NC(=O)[C@H](CC(=O)O)NC1=O)NC(=O)[C@H](CC(C)(C)C)NC(=O)[C@H](CC(=O)O)NC2=O (some centres unmarked) [I-2098]",
    "MEASUREMENT_TARGET": "full-length beta-Catenin (Uniprot ID P35222) (Homo sapiens, UniProt P35222)",
    "MEASURED_PARAMETER": "pIC50",
    "ENDPOINT_RESULT": 6.59
  }
]

Now consider a different molecule.
State the recorded pIC50 for this entry: CC(=O)N1CCC[C@]12CC=CCCCC1(CCCC=CCCCOC(=O)N3CC[C@@](C(=O)N[C@@H](Cc4ccsc4)C(=O)N[C@@H](Cc4csc5ccccc45)C(=O)N[C@@H](CCC(N)=O)C(N)=O)(C3)NC(=O)[C@H](CC(C)C)NC(=O)[C@H](Cc3ccccc3)NC(=O)[C@H](C)NC(=O)[C@H](C)NC(=O)[C@H](CN(CC(=O)O)C(=O)Cc3ccc(C(F)(F)F)cc3)NC(=O)[C@H](CC(=O)O)NC1=O)NC(=O)[C@H](CC(C)(C)C)NC(=O)[C@H](CC(=O)O)NC2=O (some centres unmarked)
7.64

====

- MEASUREMENT_TARGET: full-length beta-Catenin (Uniprot ID P35222) (Homo sapiens)
- Construct: 10 nM full-length beta-Catenin (Uniprot ID P35222)
- Sequence (P35222 1-781): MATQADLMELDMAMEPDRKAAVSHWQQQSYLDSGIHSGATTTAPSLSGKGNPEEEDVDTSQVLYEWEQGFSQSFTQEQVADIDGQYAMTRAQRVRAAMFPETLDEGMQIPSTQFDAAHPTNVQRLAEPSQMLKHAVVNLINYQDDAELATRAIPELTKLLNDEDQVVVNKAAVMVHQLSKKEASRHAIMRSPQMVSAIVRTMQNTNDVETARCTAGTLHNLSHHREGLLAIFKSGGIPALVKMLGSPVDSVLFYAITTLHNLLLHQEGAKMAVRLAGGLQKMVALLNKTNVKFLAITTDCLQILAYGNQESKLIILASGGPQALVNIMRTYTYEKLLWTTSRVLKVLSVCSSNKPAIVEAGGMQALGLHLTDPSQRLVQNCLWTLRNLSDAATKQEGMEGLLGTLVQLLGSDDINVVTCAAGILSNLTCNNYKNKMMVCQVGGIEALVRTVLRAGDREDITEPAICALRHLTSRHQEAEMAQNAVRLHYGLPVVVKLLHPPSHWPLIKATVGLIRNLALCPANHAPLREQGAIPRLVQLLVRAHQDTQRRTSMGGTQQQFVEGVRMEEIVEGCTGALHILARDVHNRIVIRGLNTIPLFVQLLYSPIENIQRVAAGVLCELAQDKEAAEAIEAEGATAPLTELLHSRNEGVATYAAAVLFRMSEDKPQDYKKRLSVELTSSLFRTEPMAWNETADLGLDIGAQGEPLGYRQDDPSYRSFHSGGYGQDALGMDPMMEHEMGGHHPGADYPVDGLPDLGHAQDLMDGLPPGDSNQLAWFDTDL
- PROTOCOL: Fluorescence polarization IC50 (beta-catenin / 5FAM-TCF4 10-53 competition)
- Assay type: binding
- SETTINGS: fluorescence polarization; read-out: beta-Catenin FP IC50
MEASURED_PARAMETER: pIC50
Value format note: pIC50 is -log10 of concentration (mol/L); just state the number.

Some compounds with recorded pIC50:
[
  {
    "COMPOUND": "CC[C@@H](C)[C@@H](NC(=O)[C@H](CCC(N)=O)NC(=O)[C@H](Cc1csc2ccccc12)NC(=O)[C@H](Cc1ccccc1)NC(=O)[C@]1(C)CCCCCCC=CCCCC2(CCCC=CC[C@]3(CCCN3C(C)=O)C(=O)N[C@@H](CC(=O)O)C(=O)N[C@@H](CC(C)C)C(=O)N2)C(=O)N[C@@H](CC(=O)O)C(=O)N[C@@H](CCC(=O)O)C(=O)N[C@@H](C)C(=O)N[C@@H](C)C(=O)N[C@@H](Cc2ccccc2)C(=O)N[C@@H](CC(N)=O)C(=O)N1)C(N)=O (stereo partly drawn) [I-735]",
    "pIC50": 6.61
  },
  {
    "COMPOUND": "CC(=O)N1CCC[C@]12CC=CCCCC1(CCCC=CCCCCCC[C@@](C)(C(=O)N[C@@H](Cc3ccccc3)C(=O)N[C@@H](Cc3csc4ccccc34)C(=O)N[C@@H](Cc3c[nH]cn3)C(N)=O)NC(=O)[C@H](CCC(N)=O)NC(=O)[C@H](Cc3ccccc3)NC(=O)[C@H](C)NC(=O)[C@H](C)NC(=O)[C@H](CC(=O)O)NC(=O)[C@H](CC(=O)O)NC1=O)NC(=O)[C@H](CC(C)C)NC(=O)[C@H](CC(=O)O)NC2=O (stereo partly drawn) [I-561]",
    "pIC50": 7.47
  }
]

Tell me the measured pIC50 of CC(=O)N1CCC[C@]12CC=CCCCC1(CCCC=CCCCOC(=O)N3CC[C@@](C(=O)N[C@@H](Cc4ccsc4)C(=O)N[C@@H](Cc4csc5ccccc45)C(=O)N[C@@H](CCC(N)=O)C(N)=O)(C3)NC(=O)[C@H]([C@@H](C)O)NC(=O)[C@H](Cc3ccccc3)NC(=O)[C@H](C)NC(=O)[C@H](C)NC(=O)[C@H]([C@@H](C)O)NC(=O)[C@H](CC(=O)O)NC1=O)NC(=O)[C@H](CC1CCCCC1)NC(=O)[C@H](CC(=O)O)NC2=O (stereo partly drawn) [I-1173] , please.
7.92
